tested on: MIWI (PIWIL1) piRISC loaded with L1MC piRNA (30 nt); test: pre-steady-state target cleavage rate (min^-1); MIWI and MILI are mouse PIWI proteins and EfPiwi is from a freshwater sponge; tags in brackets are library labels; higher = faster piRNA-guided slicing of the target; details: guide: L1MC piRNA 5'p-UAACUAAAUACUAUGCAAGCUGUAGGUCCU; auxiliary factor: 500 nM mouse GTSF1;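 further: 1 nM active piRISC with 0.1 nM target library at 33 °C single turnover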
The full ranking holds about 8,200 sequences; the median of “pre-steady-state target cleavage rate” is about 0.024, and the highest 2% start at about 1.3. This excerpt belongs to a sample that is enriched for the highest values.
So basically every entry gets a class from its pre-steady-state target cleavage rate, ranges being L: < 0.3; M: ≥ 0.3 and < 1; H: ≥ 1

1) UCCUCCUACACCUAGCAUAGUAUUUAGUUA: M
2) UCGACCUACAGGUUGCAAAGUAUUUAGUUA: H
3) UCGACCUACAGCUUGCAGAGUAUUUAGUUA: H
4) UCCUGCUACAGCUUGCAUAGUAUUUAGUUA [g2:g25:cont:t1A]: M
5) ACGACCUACAGCUUGCAUAGUAUUUAGUAA: H
6) UCCUGGUUCAGCUUGGAUAGUAUUUAGUUA: M
7) UCGACCUACAGCUUGCAUAGUUAUUACAAA: L
8) UCCUGCUACAGCUUGCAUAUUAUUUAGUUA: H
9) UCCUCCUACAGCUUGCAUAGUUUUUACAAA: L
10) UCCUCCUACAGCUUGGAUAGUAUUUAGUUA: H
11) UGGACCUUCAGGUUGCAUAGUAUUUAGUUA: H
12) UCCUGCUACAGGUUGCAUAGUAUUUACAAA: L
13) UCCUGCUACAGCUUGCAUAGUUAUUUAGUUA: L
14) UCGACCUACAGCUUGCAUAGUAUUUAGUA: M
15) AUGGACCUACAGCUUGCAUAGUAUUUAGUUA: H
16) AGGACCUACAGCUUGCAUAGAUUUUAGAAA: L
17) UCGACCUACAGCUUUGCAUAGUAUUUAGUUA: H
18) UCCUCCUAACAGCUUGCAUAGUAUUUAGUUA: M
19) UGGACCUACAGCUUGCAUAGUAUUUAGUUA [g2:g29:cont:t1A]: H
20) UCGACCUACAGCUUGCAUAGUAUUUAGUAA: H
21) UCCUGGAUCAGCUUGCUUAGUUUUUAGUUA: L
22) UCCUGGAUGUCGAUGCAUAGUAUUUUGUUA: L
23) UGGUCCUACAGCUUGGAUAGUAUUUAGUUA: H
24) UCCUCCUAGAGCUUGCUUAGUAUUUAGUUA: H
25) UCGUCCUACAGCUUGGAUAGUAUUUAGUUA: H
26) UCCACCUACAGCUUCGAUAGUAUUUAGAAA: L
27) UCCUGGAACAGUUGCAUAGUAUUUAGUUA: M
28) AGGACCUACAGCUUGCAUAGAUAUUUAGUUA: L
29) UCCUCCUACAGGUUGCAAAGUAUUUAGUUA: H
30) UCCUCCUACAGCUUGUAUAGUAUUUAGUUA: H
31) UGGACCUACAGCUUGCAUAGUUAUUUAGUUA: L
32) AGCGACCUACAGCUUGCAUAGUAUUUAGUUA: H
33) UCCUGCUACAGCUUGCAAAGUAUUUAGAAA: M
34) UCCUGGAUCAGCUUGCAUAGAAUUUACAAA: L
35) UCCACCUACAGCUUGGAUAGUAUUUUCAAA: L
36) UCCUCCUACAGCUUGGAUAGUAUUUAGUAA: M
37) UGCUGCUACAGCUUGCAUAGUAUUUAGUAA: M
38) UGCAGCUACAGCUUGCAUAGUAUUUAGUUA: H
39) UCCUGGAACAGCUUGCAUAGUAUUUAAGUUA: M
40) UCGACGUACACCUUGCAUAGUAUUUAGUUA: H
41) UCGACCUACAGCUUGCAUAGUAUUAAGAUA: L
42) AGCUGCUACAGCUUGCAUAGUAUUUAGUUA: H
43) UCCUCCUACAGCUUGGAUAGUAUUUAGAUA: M
